Items are presented alongside their recorded Ki.
systemUnderTest: PBP B (Mycobacterium abscessus)
Sequence (B1MP31 entry or part of it): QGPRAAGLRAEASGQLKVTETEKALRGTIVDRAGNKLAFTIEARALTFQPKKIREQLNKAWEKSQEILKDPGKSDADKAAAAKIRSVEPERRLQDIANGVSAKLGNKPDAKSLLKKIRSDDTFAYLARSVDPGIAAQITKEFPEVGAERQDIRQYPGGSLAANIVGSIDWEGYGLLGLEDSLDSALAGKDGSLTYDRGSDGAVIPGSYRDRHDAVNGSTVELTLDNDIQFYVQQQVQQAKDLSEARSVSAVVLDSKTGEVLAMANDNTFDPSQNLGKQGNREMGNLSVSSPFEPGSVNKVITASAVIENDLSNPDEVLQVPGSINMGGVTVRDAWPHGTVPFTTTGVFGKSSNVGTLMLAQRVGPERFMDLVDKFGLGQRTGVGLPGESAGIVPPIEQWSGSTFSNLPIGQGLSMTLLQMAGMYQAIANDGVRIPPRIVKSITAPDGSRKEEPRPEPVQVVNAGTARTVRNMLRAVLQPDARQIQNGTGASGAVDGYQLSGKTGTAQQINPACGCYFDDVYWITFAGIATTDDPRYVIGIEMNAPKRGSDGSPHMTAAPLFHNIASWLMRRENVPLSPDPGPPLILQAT
assayComment: Steady-state kinetics with nitrocefin (Ki,app)
Assay type: biochemical
testContext: nitrocefin at 5 × Km; read-out: Ki,app PBP B (converted)
recordedEndpoint: Ki

>>> obsvalue("CC1=C[C@@H]2CN(C(=O)N2OS(=O)(=O)O)[C@@H]1C(N)=O")
"57.7 µM"
>>> obsvalue("C[C@@H](O)[C@H]1C(=O)N2C(C(=O)O)=C(S[C@H]3CC[S@@+]([O-])C3)S[C@H]12")
"8.3 µM"
>>> obsvalue("NC(=O)[C@@H]1CC[C@@H]2CN1C(=O)N2OS(=O)(=O)O")
"33.9 µM"
>>> obsvalue("C[C@@H](O)[C@H]1C(=O)N2C(C(=O)O)=C(SC3CN(C4=NCCS4)C3)[C@H](C)[C@H]12")
"0.0183 µM"

====

systemUnderTest: LDT1 (Mycobacterium abscessus)
Sequence (B1MDC1 entry or part of it): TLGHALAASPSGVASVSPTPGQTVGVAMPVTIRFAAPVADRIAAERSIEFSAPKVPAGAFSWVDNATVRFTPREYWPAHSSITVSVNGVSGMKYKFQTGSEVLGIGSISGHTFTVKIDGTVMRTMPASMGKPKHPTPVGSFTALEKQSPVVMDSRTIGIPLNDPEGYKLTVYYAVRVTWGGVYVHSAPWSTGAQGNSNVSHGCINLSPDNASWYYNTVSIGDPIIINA
assayComment: Steady-state kinetics with nitrocefin (Ki,app)
Type: biochemical
testContext: in parentheses in Table 3
Items are presented alongside their recorded Ratio of fCss,avg to Ki,app, LDT1.
recordedEndpoint: Ratio of fCss,avg to Ki,app, LDT1

>>> obsvalue("NC(=O)[C@@H]1CC[C@@H]2CN1C(=O)N2OS(=O)(=O)O")
0.7
>>> obsvalue("CC1=C[C@@H]2CN(C(=O)N2OS(=O)(=O)O)[C@@H]1C(N)=O")
0.1
>>> obsvalue("C[C@@H](O)[C@H]1C(=O)N2C(C(=O)O)=C(SC3CN(C4=NCCS4)C3)[C@H](C)[C@H]12")
0.9
>>> obsvalue("C[C@@H](O)[C@H]1C(=O)N2C(C(=O)O)=C(SCCN=CN)C[C@H]12")
5714
>>> obsvalue("CCO/N=C(\\C(=O)N[C@@H]1C(=O)N2C(C(=O)[O-])=C(Sc3nc(-c4cc[n+](C)cc4)cs3)CS[C@H]12)c1nsc(N)n1")
14

====

Items are presented alongside their recorded Ki.
systemUnderTest: BlaMab (Mycobacterium abscessus, UniProt B1MCI3)
Sequence (B1MCI3 entry or part of it): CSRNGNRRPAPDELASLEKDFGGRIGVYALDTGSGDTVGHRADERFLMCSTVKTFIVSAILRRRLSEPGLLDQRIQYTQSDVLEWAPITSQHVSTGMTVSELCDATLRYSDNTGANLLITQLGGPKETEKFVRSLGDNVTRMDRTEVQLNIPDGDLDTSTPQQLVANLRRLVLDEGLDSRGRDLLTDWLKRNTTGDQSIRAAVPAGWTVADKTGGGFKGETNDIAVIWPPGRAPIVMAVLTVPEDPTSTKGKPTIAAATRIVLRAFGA
assayComment: Ki,app for the β-lactamase
Assay type: biochemical
testContext: read-out: Ki,app BlaMab (converted)
recordedEndpoint: Ki (nM)

>>> obsvalue("CC1=C[C@@H]2CN(C(=O)N2OS(=O)(=O)O)[C@@H]1C(N)=O")
3.97
>>> obsvalue("C[C@@H](O)[C@H]1C(=O)N2C(C(=O)O)=C(SCCN=CN)C[C@H]12")
17000
>>> obsvalue("NC(=O)[C@@H]1CC[C@@H]2CN1C(=O)N2OS(=O)(=O)O")
300

====

assayComment: Predicted average unbound steady-state plasma concentration (fCss,avg) at clinically relevant doses
Set-up: species or system human
testContext: median unbound average steady-state plasma concentration, continuous infusion; daily dose DUR 4,000, AVI 1,500, IPM 4,000, CFT 1,800, AMX 1,500, SULO 1,000, CXM 1,500, SUL 4,000, TBP 1,800 mg
recordedEndpoint: fCss,avg (mg/L)

>>> obsvalue("CC1=C[C@@H]2CN(C(=O)N2OS(=O)(=O)O)[C@@H]1C(N)=O")
16
>>> obsvalue("CO/N=C(\\C(=O)N[C@@H]1C(=O)N2C(C(=O)O)=C(COC(N)=O)CS[C@H]12)c1ccco1")
12
>>> obsvalue("CC1(C)S[C@@H]2[C@H](NC(=O)[C@H](N)c3ccc(O)cc3)C(=O)N2[C@H]1C(=O)O")
6
>>> obsvalue("C[C@@H](O)[C@H]1C(=O)N2C(C(=O)O)=C(SC3CN(C4=NCCS4)C3)[C@H](C)[C@H]12")
1.7
>>> obsvalue("CCO/N=C(\\C(=O)N[C@@H]1C(=O)N2C(C(=O)[O-])=C(Sc3nc(-c4cc[n+](C)cc4)cs3)CS[C@H]12)c1nsc(N)n1")
7
>>> obsvalue("NC(=O)[C@@H]1CC[C@@H]2CN1C(=O)N2OS(=O)(=O)O")
5
>>> obsvalue("C[C@@H](O)[C@H]1C(=O)N2C(C(=O)O)=C(SCCN=CN)C[C@H]12")
12
>>> obsvalue("C[C@@H](O)[C@H]1C(=O)N2C(C(=O)O)=C(S[C@H]3CC[S@@+]([O-])C3)S[C@H]12")
2
